Where do these numbers come from? They come from patent US20150098989A1.

biological target: SNARE complex (VAMP, syntaxin, SNAP-25 bound to GST) (UniProt P60880); test: ELISA of SNARE complex formation (SNAP-25-GST, syntaxin, immobilized VAMP); compound at 0.5 mM
Sequence (P60880 whole entry, one chain of several): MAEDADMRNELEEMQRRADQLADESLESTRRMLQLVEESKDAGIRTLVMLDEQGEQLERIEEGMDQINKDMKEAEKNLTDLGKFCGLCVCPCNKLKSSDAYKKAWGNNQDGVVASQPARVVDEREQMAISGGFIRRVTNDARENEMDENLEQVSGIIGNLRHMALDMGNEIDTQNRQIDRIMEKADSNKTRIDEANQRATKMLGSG
Non-standard residues stand in square brackets, D forms with d. Met(O) = CS(=O)CC[C@H](N)C(=O)O
measurement.label: % inhibition formation SNARE complex (%)

Some entries whose results are on file:
Ac-QDFLHWM-NH2 [Ac-SEQ ID NO: 2-NH2]: 26
Ac-DHFLDWM-NH2 [Ac-SEQ ID NO: 25-NH2]: 40
Ac-DHFLDW[Met(O)]-NH2 [Ac-SEQ ID NO: 56-NH2]: 9
Ac-QHLHNVM-NH2 [Ac-SEQ ID NO: 3-NH2]: 31

I: Ac-EDLKRWM-NH2 [Ac-SEQ ID NO: 14-NH2]
II: Ac-EHFLQWM-NH2 [Ac-SEQ ID NO: 30-NH2]
III: Ac-NDLKDWM-NH2 [Ac-SEQ ID NO: 23-NH2]
Problem: List from greatest to least % inhibition formation SNARE complex. Please respond with the labels ordered as the question requires.
Solution: I, II, III
(I: 43%, II: 24%, III: 10%)
